This collection of values is drawn from PubChem BioAssay (NCI).

Tested on: SR leukemia
Run Description: NCI tumour cell line growth inhibition, 48 h
Where a SMILES comes first, the peptide text is derived from it. [ ]: non-standard residue; d: D form. The star is where a group is joined. mTyr = N[CH](Cc1cccc(O)c1)C(=O)O; Cbz = O=C(OCc1ccccc1)*; OBn = c1ccc(CO*)cc1
Property Name: TGI

COc1cc2c(cc1OC)C1(c3ccc(Cl)cc3)ON=C(c3ccccc3)N1CS2 (stereo not drawn)
> 100 µM
O=C(Oc1cccnc1)c1ccsc1Nc1ccnc(C(F)(F)F)c1
47.1 µM
O=C(O)CNC(=O)c1c2ccccc2nc2ccccc12
> 100 µM
C[C@@H]1O[C@@H](O[C@H]2CC[C@@]3(C)[C@H](CCC4[C@@H]3C(O)C[C@]3(C)[C@@H](c5ccc(=O)oc5)CC[C@]43O)C2)[C@H](O)[C@H](O)[C@H]1O (stereo partly drawn)
0.0109 µM
C[C@H]1C=C2[C@@H]3CC(C)(C(=O)O)CC[C@]3(C)CC[C@]2(C)[C@]2(C)CC[C@H]3C(C)(C)[C@@H](OC(=O)c4cccc5c(=O)c6ccccc6[nH]c45)CC[C@]3(C)[C@@H]12 (stereo partly drawn)
> 100 µM

Prompt: Fill in: TGI of COc1ccc(C2[C@@H](Cl)C(=O)N2c2cc(OC)c(OC)c(OC)c2)cc1Cl (stereo partly drawn) is ___
Completion: > 100 µM

Prompt: Cool, now CC1=CC(=O)C(O)C2(C)C1CC(O)C13COC4(C)C(OC(=O)C41)C(O)C23 (stereo not drawn)
Completion: 6.46 µM

Prompt: Please answer likewise for `N#Cc1ccc(N=Cc2c([O-])ccc3ccccc23)cc1.[C-]#[O+].[C-]#[O+].[Ir]`
Completion: 20.6 µM

Prompt: Continue with `CN(C)CCC(/C=C/c1ccccc1)=N\Nc1ccc(Cl)cc1Cl`
Completion: 23.9 µM

Prompt: Also `O=c1onc2c3ccccc3ncn12` , if possible.
Completion: > 100 µM

Prompt: COc1cccc(N2C(=O)C3c4[nH]c5ccc(C)cc5c4C4CCC(C(C)(C)C)CC4C3C2=O)c1 (stereo not drawn) , same question.
Completion: 4.03 µM

Prompt: Repeat with `O=C(N/N=C/c1cc(Cl)cc(Cl)c1O)c1ccccc1O`
Completion: > 100 µM

Prompt: Next record, please: `Cc1cc(O)c(C(C)C)cc1C1(c2cc(C(C)C)c(O)cc2C)OC(=O)c2ccccc21`
Completion: 4.02 µM

Prompt: Param item: COC(=O)C(Cc1cccc(O)c1)NC(=O)C(CC(=O)OCc1ccccc1)NC(=O)OCc1ccccc1 (stereo not drawn) (Cbz-Asp(OBn)-[mTyr]-OMe; configuration not given here)
Completion: > 100 µM

Prompt: Now the same for `CNS(=O)(=O)NNS(=O)(=O)c1ccc(Cl)cc1`
Completion: > 100 µM

Prompt: Now consider `CCC1(COC(NC(=O)c2ccccc2)(C(F)(F)F)C(F)(F)F)COC1` and answer again.
Completion: > 100 µM

Prompt: Then what about the molecule CCOC(=O)CSc1nnc(C(Sc2nc(-c3ccccc3)c(-c3ccccc3)[nH]2)C(C)C)n1-c1ccccc1 (stereo not drawn) ?
Completion: > 89.6 µM

Prompt: Next: `CCN(CC)CCNCc1cc(Cl)cc2c1OCOC2`
Completion: > 10 µM

----------
Tested on: IGROV1 ovarian
Run Description: NCI tumour cell line growth inhibition, 48 h
Below is a list of entries, each paired with its recorded TGI value.

Here is how some compounds turned out for TGI.
O=C(Nc1cccc(F)c1)c1cc2ccc(O)cc2oc1=Nc1ccccc1F
7.44 µM
c1ccc(CSCCc2ccncc2)cc1
> 100 µM
Cc1c(C2=C(c3cn(C)c4ccccc34)C(=O)NC2=O)c2ccccc2n1C
> 25 µM

Prompt: May I ask what TGI has been recorded for COc1ccc2c(c1)CCN1CCc3cc(OC)c(OC)cc3CC21 (stereo unspecified) ?
Completion: > 10 µM

Prompt: Same question, `c1ccc(P(=Nc2ccccc2N=P(c2ccccc2)(c2ccccc2)c2ccccc2)(c2ccccc2)c2ccccc2)cc1` this time
Completion: 22.8 µM

----------
System: RPMI-8226 leukemia
Run Description: NCI tumour cell line growth inhibition, 48 h
In this section, each of the compounds is paired with its reported log10 of TGI.
The base-10 logarithm of TGI, taken with TGI in µM, is what appears here.

Prompt: Name the recorded log10 of TGI for `O=[N+]([O-])c1cc(S(=O)(=O)Oc2ccccc2)ccc1Cl` .
Completion: 0.92

Prompt: Try `N#Cc1ccc(N=Cc2c([O-])ccc3ccccc23)cc1.[C-]#[O+].[C-]#[O+].[Ir]` next.
Completion: 1.40

Prompt: Next compound: `Nc1ccccc1SCc1csc(-c2ccc(Cl)cc2)n1`
Completion: 1.65

Prompt: Please answer likewise for `COc1ccc(C(=O)N2c3ccccc3Sc3ccccc32)c(OC)c1`
Completion: 1.48

Prompt: And for `CCCc1ccc(NCc2cc(OC)c(OC)c(OC)c2)cc1` ?
Completion: 1.57

Prompt: Here is the next compound: `Cc1cc(O)c(C(C)C)cc1C1(c2cc(C(C)C)c(O)cc2C)OC(=O)c2ccccc21`
Completion: 0.50

Prompt: // same read-out, input: `CN(C)CCC(/C=C/c1ccccc1)=N\Nc1ccc(Cl)cc1Cl`
Completion: 1.48

Prompt: Likewise for CCN(CCO)CC(C)Nc1ccc([N+](=O)[O-])c2sc3ccccc3c(=O)c12 (configuration not stated) ?
Completion: 0.60

Prompt: Here is the next compound: `CCCCCCN(N)C(=O)CC#N`
Completion: 1.77

----------
System: TK-10 renal
Run Description: NCI tumour cell line growth inhibition, 48 h
Property Name: TGI

Example entries and their recorded answers appear below.
CC(C)C1=CC23CCC4C(C)(C(=O)O)CCCC4(C)C2CC1C1C(=O)N(c2ccc(C(=O)O)cc2)C(=O)C13 (centres undefined)
> 100 µM
C[C@H]1C=C2[C@@H]3CC(C)(C(=O)O)CC[C@]3(C)CC[C@]2(C)[C@]2(C)CC[C@H]3C(C)(C)[C@@H](OC(=O)c4cccc5c(=O)c6ccccc6[nH]c45)CC[C@]3(C)[C@@H]12 (some centres undefined)
> 100 µM
Cc1ccc(S(=O)(=O)NCCSCCSCCNS(=O)(=O)c2ccc(C)cc2)cc1
> 100 µM
COC(=O)c1c(OC(C)=O)ccc2c1c1c(OC(C)=O)c3ccccc3c(OC(C)=O)c1n2Cc1ccccc1
> 50 µM
COc1cccc(NC(=O)C(C#N)=C(SC)SC)c1
> 100 µM
CCC1(O)C(=O)OCc2c1cc1n(c2=O)Cc2cc3cc(N)ccc3nc2-1 (centres undefined)
> 28.2 µM

Prompt: Entry Nc1nc(Cl)c(N)c(NCC2(CO)CC(CCCc3ccccc3)C2)n1 (centres undefined) : reported TGI = ?
Completion: > 100 µM

Prompt: Please do the same for CCN1C(=O)N(CC)C2C1NN=c1s/c(=C3\C(=O)N(CCc4ccccc4)c4ccccc43)c(=O)n12 (centres undefined) as well.
Completion: 29.2 µM

Prompt: Please answer likewise for COC(=O)CC1NC(=O)C1C1(C)OCCO1 (centres undefined)
Completion: > 100 µM

----------
Tested on: RXF 393 renal
Run Description: NCI tumour cell line growth inhibition, 48 h
Property Name: TGI (µM)
// units = µM; emit number, no label

CC1=CC(=O)C(O)C2(C)C1CC(O)C13COC4(C)C(OC(=O)C41)C(O)C23 (stereo not given)
6.98

Now look at this entry.
Prompt: I would be grateful if you could share the reported TGI for Cc1ccc(C2=Nc3ccccc3SC(c3cccc([N+](=O)[O-])c3)C2)cc1 (stereo not given) .
Completion: 72.2

----------
Tested on: KM12 colon
Run Description: NCI tumour cell line growth inhibition, 48 h
Measured TGI, listed per entry for reference.

O=C(O)CNC(=O)c1c2ccccc2nc2ccccc12
> 100 µM

Prompt: What TGI appears in the records for this molecule with KM12 colon? `CCOc1nc(N)nc(C)c1N=Nc1ccc(Cl)cc1`
Completion: > 100 µM

Prompt: // next record `CN(C)CCCN1c2ccccc2CCc2ccc([N+](=O)[O-])cc21`
Completion: 33.8 µM

Prompt: Now this one: `COc1ccc(C(=O)N2c3ccccc3Sc3ccccc32)c(OC)c1`
Completion: > 100 µM

----------
Tested on: MALME-3M melanoma
Run Description: NCI tumour cell line growth inhibition, 48 h
Property Name: GI50

Illustrative cases are given below, each with its answer.
CCn1c2ccccc2c2cc(/C=C(/C#N)C(N)=O)ccc21
> 75.2 µM
CC1=CC(=O)C(O)C2(C)C1CC(O)C13COC4(C)C(OC(=O)C41)C(O)C23 (stereo unspecified)
10.1 µM
CC(=O)Oc1ccccc1C(=O)/C=C/c1cccc([N+](=O)[O-])c1
13.6 µM
CCCCn1c(=O)c2c(nc3n2CCCN3CCc2ccc(OCC(=O)NCCN(CC)CC)cc2)n(CCCC)c1=O
0.922 µM
O=C([CH-]C(=O)c1ccccc1)c1ccccc1.O=C([CH-]C(=O)c1ccccc1)c1ccccc1.[OH-].[OH-].[Ti+4]
> 100 µM

Prompt: Please give the measured GI50 for this compound: `COc1cc(/C=C/[N+](=O)[O-])cc(Br)c1OC`
Completion: 2.61 µM

Prompt: Now give it for `CN1CCN(Cc2ccc(NC(=O)c3[nH]ncc3Nc3ncnc4sc5c(c34)CCCC5)cc2)CC1` too.
Completion: 1.35 µM

Prompt: Likewise for `O=C1NC(=O)C(c2cccc(Cl)c2)=C1Nc1ccc(O)c(Cl)c1` ?
Completion: 15.9 µM

Prompt: COC1O[C@@H]2C[C@H]3C(C)(C)CCC[C@]3(C)C3=CCCC1[C@@]32C (stereo partly specified) ?
Completion: > 100 µM

Prompt: How about `O=C(N/N=C/c1cc(Cl)cc(Cl)c1O)c1ccccc1O` ?
Completion: 2.8 µM

Prompt: Also COc1cc2c(c(OC)c1OC)-c1ccc(SC)c(=O)cc1[C@@H](NC1OC(CO)C(O)C(O)C1O)CC2 (stereo partly specified) ?
Completion: 44.8 µM
